# TARGET UNDER TEST: RGS4(WT) (Rattus norvegicus, UniProt P49799)
# Construct: fused to the N-terminus of an RGS4 construct containing amino acids 51–205; 10× His tag (N, cleaved yes); made in house; host or cells: E. coli BL21-DE3
# Sequence (P49799 51-205): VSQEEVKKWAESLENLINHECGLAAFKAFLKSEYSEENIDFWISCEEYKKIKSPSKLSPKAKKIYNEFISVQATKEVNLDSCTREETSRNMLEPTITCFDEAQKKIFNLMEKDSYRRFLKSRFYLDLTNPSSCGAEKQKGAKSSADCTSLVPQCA
# ASSAY EXPLANATION: Malachite green steady-state GAP assay, RGS4(WT)
# Assay type: biochemical
# Procedure: Stock solutions of each of the 3 components of the developing solution were prepared, which are stable for long-term storage. Malachite solution was prepared by first diluting concentrated sulfuric acid 1∶5 in distilled water. […] The peak absorbance was determined by a 2 nm step wavelength scan, using 10 µM Na3PO4 at pH 7.5 as the negative control. […]
MEASUREMENT NAME: IC50 (µM)
Numbers only, in µM.

1) CC(C)=CCC[C@]1(C)C=Cc2c(O)c3c(c(CC=C(C)C)c2O1)O[C@]12C(=C[C@@H]4C[C@H]1C(C)(C)O[C@@]2(C/C=C(/C)C(=O)O)C4=O)C3=O [UI-1907, gambogic acid]
16

Let's switch to this compound now.
Which value of IC50 has been reported for CC1=C(O)C(=O)C=C2C1=CC=C1[C@@]2(C)CC[C@@]2(C)[C@@H]3C[C@](C)(C(=O)O)CC[C@]3(C)CC[C@]12C [UI-1590, celastrol] in the records?
0.724
